Tested System: S-adenosyl-L-homocysteine hydrolase (HsSAHH) (Homo sapiens, UniProt P23526)
Sequence (P23526 2-432): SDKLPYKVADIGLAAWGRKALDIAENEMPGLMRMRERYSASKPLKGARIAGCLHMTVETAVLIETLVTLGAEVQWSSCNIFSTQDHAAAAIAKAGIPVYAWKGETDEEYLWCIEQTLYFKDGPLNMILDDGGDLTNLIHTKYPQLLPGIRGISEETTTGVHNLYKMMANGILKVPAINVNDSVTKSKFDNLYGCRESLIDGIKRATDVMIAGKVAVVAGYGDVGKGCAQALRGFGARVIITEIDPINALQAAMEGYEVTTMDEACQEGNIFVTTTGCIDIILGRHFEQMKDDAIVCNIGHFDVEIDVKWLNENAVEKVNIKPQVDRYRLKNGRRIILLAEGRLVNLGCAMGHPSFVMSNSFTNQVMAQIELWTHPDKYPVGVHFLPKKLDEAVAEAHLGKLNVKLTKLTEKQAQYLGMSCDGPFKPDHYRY
Measurement Notes: biochemical
Quantity Kind: Ki

INSERT INTO measurements (mol_smiles, result) VALUES
  ('Nc1ncnc2c1ncn2C[C@@H](O)[C@@H](O)C(=O)O', '11.3 nM');

---

Tested System: S-adenosyl-L-homocysteine hydrolase (HsSAHH) (Homo sapiens)
Measurement Notes: luciferase-coupled adenosine assay
Type: biochemical
pKi: −log10 of the molar value.
Quantity Kind: pKi

INSERT INTO results (mol_smiles, recorded_number) VALUES
  ('NC[C@H]1O[C@@H](n2cnc3c(N)ncnc32)[C@H](O)[C@@H]1O', 5.66);
